Data credit: paper PMC5421360

test system: HER2; experiment: Western blot of HER2 tyrosine phosphorylation in NCI-H838 cells; format: cell-based, human; settings: NSCLC cells; concentration not given; data not shown
OUTCOME MEASURE: effect on HER2 transactivation caused by ET-1

CC(=O)N[C@@H](CS)C(=O)O : inhibited
COc1nc(C)cnc1NS(=O)(=O)c1cccnc1-c1ccc(-c2nnco2)cc1 : inhibited
CS(=O)(=O)CCNCc1ccc(-c2ccc3ncnc(Nc4ccc(OCc5cccc(F)c5)c(Cl)c4)c3c2)o1 : inhibited

###

target: ETAR (Homo sapiens, UniProt P25101); assay: 125I-ET-1 radioreceptor binding to NCI-H838 cells
Sequence (P25101 21-427): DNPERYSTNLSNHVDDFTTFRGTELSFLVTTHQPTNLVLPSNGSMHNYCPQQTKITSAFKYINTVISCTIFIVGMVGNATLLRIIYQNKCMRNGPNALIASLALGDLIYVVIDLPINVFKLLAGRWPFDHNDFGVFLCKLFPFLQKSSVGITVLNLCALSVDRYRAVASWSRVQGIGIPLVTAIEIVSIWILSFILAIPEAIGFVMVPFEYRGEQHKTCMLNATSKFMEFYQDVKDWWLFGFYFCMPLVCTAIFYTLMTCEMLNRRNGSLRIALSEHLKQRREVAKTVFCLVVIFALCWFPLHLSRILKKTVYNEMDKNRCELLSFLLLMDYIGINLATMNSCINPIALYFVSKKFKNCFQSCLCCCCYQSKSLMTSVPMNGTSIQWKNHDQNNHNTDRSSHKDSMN
Non-standard residues stand in square brackets, D forms with d. Residues, ends and D or L forms follow the SMILES beside them.
In this section, each of the compounds is paired with its reported IC50.
Only the number, expressed in nM, is required.

CCCC[C@@H](NC(=O)[C@@H](Cc1cn(C(=O)OC)c2ccccc12)NC(=O)[C@H](CC(C)(C)C)NC(=O)N1[C@H](C)CCC[C@@H]1C)C(=O)O : 20

Exercise: # assay system ETAR (Homo sapiens, UniProt P25101): give IC50 of CC(C)C[C@@H]1NC(=O)[C@@H](C(C)C)NC(=O)[C@@H]2CCCN2C(=O)[C@@H](CC(=O)O)NC(=O)[C@@H](Cc2c[nH]c3ccccc23)NC1=O [BQ123] (cyclo(L[dW][dD]P[dV]); ring closure inferred)
Key: 1
